Conditions: 0.1N HCl, 1.0% DMSO, 24-hour incubation at ambient temperature, maximum theoretical 100 μM; first value of the cell
readout-label: pH 2 solubility (μM)

{"columns": ["smiles-notation", "pH 2 solubility / μM"],
 "data": [
  ["CC(C)(C#Cc1ccc(-c2ccc(Cl)c3c(N(C(=O)OCCN(CCC(=O)O)C(=O)OCOP(=O)(O)O)S(C)(=O)=O)nn(CC(F)(F)F)c23)c([C@H](Cc2cc(F)cc(F)c2)NC(=O)Cn2nc(C(F)(F)F)c3c2C(F)(F)[C@@H]2C[C@H]32)n1)S(C)(=O)=O", 1],
  ["CC(C)(C#Cc1ccc(-c2ccc(Cl)c3c(N(C(=O)OCCOCCOCCOCCOP(=O)(O)O)S(C)(=O)=O)nn(CC(F)(F)F)c23)c([C@H](Cc2cc(F)cc(F)c2)NC(=O)Cn2nc(C(F)(F)F)c3c2C(F)(F)[C@@H]2C[C@H]32)n1)S(C)(=O)=O", 1],
  ["CC(C)(C#Cc1ccc(-c2ccc(Cl)c3c(N(C(=O)C(=O)O)S(C)(=O)=O)nn(CC(F)(F)F)c23)c([C@H](Cc2cc(F)cc(F)c2)NC(=O)Cn2nc(C(F)(F)F)c3c2C(F)(F)[C@@H]2C[C@H]32)n1)S(C)(=O)=O", 1]
]}
